# CC50 at 96 h values compiled below
PROTOCOL_DESCRIPTION: Cytotoxicity against human Lunet cells expressing ET subgenomic replicon after 4 days by Celltitre-Glo assay
Assay type: cell-based

Name the recorded CC50 at 96 h of the molecule listed here: Nc1ccn([C@@H]2O[C@H](CO)[C@@H](O)[C@@]23CCCO3)c(=O)n1
> 100 µM

Name the recorded CC50 at 96 h of the molecule listed here: O=c1ccn([C@@H]2O[C@H](CO)[C@@H](O)[C@]23CCCO3)c(=O)[nH]1
> 100 µM

Name the recorded CC50 at 96 h of the molecule listed here: COC(=O)[C@H](C)NP(=O)(OC[C@H]1O[C@@H](n2cnc3c(OC)nc(N)nc32)[C@@]2(CCO2)[C@@H]1O)Oc1ccccc1 (mixture of isomers)
> 20 µM

Name the recorded CC50 at 96 h of the molecule listed here: COc1nc(N)nc2c1ncn2[C@@H]1O[C@H](CO[P@@](=O)(N[C@@H](C)C(=O)OCC(C)C)Oc2ccccc2)[C@@H](O)[C@]12CCO2
> 20 µM

Name the recorded CC50 at 96 h of the molecule listed here: Nc1ccn([C@@H]2O[C@H](CO)[C@@H](O)[C@@]23CCO3)c(=O)n1
> 100 µM

Next:
Name the recorded CC50 at 96 h of the molecule listed here: CCOC(=O)[C@H](C)N[P@](=O)(OC[C@H]1O[C@@H](n2cnc3c(OC)nc(N)nc32)[C@@]2(CCO2)[C@@H]1O)Oc1ccccc1
> 20 µM

Name the recorded CC50 at 96 h of the molecule listed here: COc1nc(N)nc2c1ncn2[C@@H]1O[C@H](CO[P@@](=O)(N[C@@H](C)C(=O)OC(C)C)Oc2ccccc2)[C@@H](O)[C@]12CCO2
> 20 µM

Name the recorded CC50 at 96 h of the molecule listed here: COc1nc(N)nc2c1ncn2[C@@H]1O[C@H](CO[P@](=O)(N[C@@H](C)C(=O)OC2CCCC2)Oc2ccccc2)[C@@H](O)[C@]12CCO2
> 20 µM

Name the recorded CC50 at 96 h of the molecule listed here: COc1nc(N)nc2c1ncn2[C@@H]1O[C@H](CO[P@](=O)(N[C@@H](C)C(=O)OCC(C)C)Oc2ccccc2)[C@@H](O)[C@]12CCO2
> 20 µM

Name the recorded CC50 at 96 h of the molecule listed here: COc1nc(N)nc2c1ncn2[C@@H]1O[C@H](CO[P@](=O)(N[C@@H](C)C(=O)OCC(C)(C)C)Oc2ccccc2)[C@@H](O)[C@]12CCO2
> 20 µM

---

PROTOCOL_DESCRIPTION: Cytotoxicity against human Lunet cells expressing ET subgenomic replicon after 4 days by Celltitre-Glo assay
Type: cell-based
REPORTED_ENDPOINT: CC50 at 96 h

Field: example entries. Status: answers known.
Name the recorded CC50 at 96 h of the compound listed here: Nc1ccn([C@@H]2O[C@H](CO)[C@@H](O)[C@]23CCCO3)c(=O)n1
> 100 µM

Name the recorded CC50 at 96 h of the compound listed here: O=c1ccn([C@@H]2O[C@H](CO)[C@@H](O)[C@@]23CCO3)c(=O)[nH]1
> 100 µM

Name the recorded CC50 at 96 h of the compound listed here: COc1nc(N)nc2c1ncn2[C@@H]1O[C@H](COP(=O)(N[C@@H](C)C(=O)OCC(C)(C)C)Oc2cccc3ccccc23)[C@@H](O)[C@]12CCO2 (mixture of isomers)
> 20 µM

Name the recorded CC50 at 96 h of the compound listed here: COC(=O)[C@H](C)NP(=O)(OC[C@H]1O[C@@H](n2ccc(=O)[nH]c2=O)[C@]2(CCO2)[C@@H]1O)Oc1ccccc1 (mixture of isomers)
> 100 µM

Name the recorded CC50 at 96 h of the compound listed here: COC(=O)[C@H](C)NP(=O)(OC[C@H]1O[C@@H](n2ccc(=O)[nH]c2=O)[C@]2(CCCO2)[C@@H]1O)Oc1ccccc1 (mixture of isomers)
> 100 µM

Turning now to a further record.
Name the recorded CC50 at 96 h of the compound listed here: COC(=O)[C@H](C)NP(=O)(OC[C@H]1O[C@@H](n2ccc(=O)[nH]c2=O)[C@@]2(CCO2)[C@@H]1O)Oc1ccccc1 (mixture of isomers)
> 100 µM

---

PROTOCOL_DESCRIPTION: Cytotoxicity against human Lunet cells expressing ET subgenomic replicon after 4 days by Celltitre-Glo assay
Format: cell-based
# CC50 at 96 h values compiled below

Field: example entries. Status: answers known.
Name the recorded CC50 at 96 h of the compound listed here: COc1nc(N)nc2c1ncn2[C@@H]1O[C@H](CO[P@](=O)(N[C@@H](C)C(=O)OC(C)C)Oc2ccccc2)[C@@H](O)[C@]12CCO2
> 20 µM

Name the recorded CC50 at 96 h of the compound listed here: COc1nc(N)nc2c1ncn2[C@@H]1O[C@H](CO[P@](=O)(N[C@@H](C)C(=O)OCc2ccccc2)Oc2ccccc2)[C@@H](O)[C@]12CCO2
> 20 µM

Name the recorded CC50 at 96 h of the compound listed here: COc1nc(N)nc2c1ncn2[C@@H]1O[C@H](CO[P@@](=O)(N[C@@H](C)C(=O)OC2CCCC2)Oc2ccccc2)[C@@H](O)[C@]12CCO2
> 20 µM

Name the recorded CC50 at 96 h of the compound listed here: Nc1ccn([C@@H]2O[C@H](CO)[C@@H](O)[C@]23CCO3)c(=O)n1
> 100 µM

Name the recorded CC50 at 96 h of the compound listed here: CC(C)OC(=O)[C@H](C)NP(=O)(OC[C@H]1O[C@@H](n2ccc(N)nc2=O)[C@@]2(CCO2)[C@@H]1O)Oc1ccccc1 (some centres not stated)
> 100 µM

Next:
Name the recorded CC50 at 96 h of the compound listed here: COc1nc(N)nc2c1ncn2[C@@H]1O[C@H](CO[P@@](=O)(N[C@@H](C)C(=O)OCC(C)(C)C)Oc2ccccc2)[C@@H](O)[C@]12CCO2
> 20 µM

Name the recorded CC50 at 96 h of the compound listed here: COc1nc(N)nc2c1ncn2[C@@H]1O[C@H](CO[P@@](=O)(N[C@@H](C)C(=O)OCc2ccccc2)Oc2ccccc2)[C@@H](O)[C@]12CCO2
> 20 µM

---

# pIC50 values compiled below
PROTOCOL_DESCRIPTION: Inhibition of HCV genotype 1b wild type recombinant NS5B RNA dependent RNA polymerase using IRES RNA as substrate after 30 mins by radioactive assay in presence of [alpha32p]UTP
Set-up: species or system Hepatitis C virus subtype 1b
The meaning of pIC50 here: minus log10 of the concentration in molar units.

Field: example entries. Status: answers known.
Name the recorded pIC50 of the compound listed here: O=c1ccn([C@@H]2O[C@H](COP(=O)(O)OP(=O)(O)OP(=O)(O)O)[C@@H](O)[C@]23CCO3)c(=O)[nH]1
4.40

Name the recorded pIC50 of the compound listed here: Nc1ccn([C@@H]2O[C@H](COP(=O)(O)OP(=O)(O)OP(=O)(O)O)[C@@H](O)[C@]23CCCO3)c(=O)n1
4.34

Next:
Name the recorded pIC50 of the compound listed here: Nc1nc2c(ncn2[C@@H]2O[C@H](COP(=O)(O)OP(=O)(O)OP(=O)(O)O)[C@@H](O)[C@]23CCO3)c(=O)[nH]1
5.02

---

TARGET_SYSTEM: RNA-directed RNA polymerase (Hepacivirus hominis, UniProt O39930, S282T)
Sequence (O39930 entry or part of it S282T): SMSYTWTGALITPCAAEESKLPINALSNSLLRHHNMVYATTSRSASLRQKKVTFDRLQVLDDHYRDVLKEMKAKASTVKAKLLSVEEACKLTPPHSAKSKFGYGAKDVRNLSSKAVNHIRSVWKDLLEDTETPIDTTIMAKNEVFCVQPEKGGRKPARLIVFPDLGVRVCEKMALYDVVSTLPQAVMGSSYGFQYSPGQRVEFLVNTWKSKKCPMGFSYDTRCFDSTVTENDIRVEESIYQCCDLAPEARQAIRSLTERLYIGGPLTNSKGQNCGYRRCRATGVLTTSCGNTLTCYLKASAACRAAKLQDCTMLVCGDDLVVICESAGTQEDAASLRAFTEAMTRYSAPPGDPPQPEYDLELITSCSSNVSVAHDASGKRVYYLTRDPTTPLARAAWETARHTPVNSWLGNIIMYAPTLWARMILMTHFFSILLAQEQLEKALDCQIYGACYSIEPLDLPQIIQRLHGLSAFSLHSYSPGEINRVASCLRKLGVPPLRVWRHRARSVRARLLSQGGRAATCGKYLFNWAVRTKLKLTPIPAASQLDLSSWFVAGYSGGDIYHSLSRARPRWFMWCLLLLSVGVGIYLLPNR
PROTOCOL_DESCRIPTION: Inhibition of HCV genotype 1b recombinant NS5B RNA dependent RNA polymerase S282T mutant using IRES RNA as substrate after 30 mins by radioactive assay in presence of [alpha32p]UTP
# IC50 values compiled below
The reply should contain only the number, in µM.

Name the recorded IC50 of the molecule listed here: Nc1nc2c(ncn2[C@@H]2O[C@H](COP(=O)(O)OP(=O)(O)OP(=O)(O)O)[C@@H](O)[C@]23CCO3)c(=O)[nH]1
10.4

Next:
Name the recorded IC50 of the molecule listed here: C[C@@]1(F)[C@H](O)[C@@H](CO)O[C@H]1n1ccc(N)nc1=O
56.7

Name the recorded IC50 of the molecule listed here: COc1nc(N)nc2c1ncn2[C@@H]1O[C@H](COP(=O)(O)OP(=O)(O)OP(=O)(O)O)[C@@H](O)[C@@]1(C)F
5.31

---

PROTOCOL_DESCRIPTION: Inhibition of HCV genotype 1b wild type recombinant NS5B RNA dependent RNA polymerase using IRES RNA as substrate after 30 mins by radioactive assay in presence of [alpha32p]UTP
Set-up: species or system Hepatitis C virus subtype 1b
# IC50 values compiled below

Field: example entries. Status: answers known.
Name the recorded IC50 of the compound listed here: Nc1ccn([C@@H]2O[C@H](COP(=O)(O)OP(=O)(O)OP(=O)(O)O)[C@@H](O)[C@]23CCO3)c(=O)n1
8.48 µM

Name the recorded IC50 of the compound listed here: Nc1ccn([C@@H]2O[C@H](COP(=O)(O)OP(=O)(O)OP(=O)(O)O)[C@@H](O)[C@@]23CCO3)c(=O)n1
> 100 µM

Name the recorded IC50 of the compound listed here: Nc1ccn([C@@H]2O[C@H](COP(=O)(O)OP(=O)(O)OP(=O)(O)O)[C@@H](O)[C@@]23CCCO3)c(=O)n1
> 100 µM

Name the recorded IC50 of the compound listed here: COc1nc(N)nc2c1ncn2[C@@H]1O[C@H](COP(=O)(O)OP(=O)(O)OP(=O)(O)O)[C@@H](O)[C@@]1(C)F
4.2 µM

Turning now to a further record.
Name the recorded IC50 of the compound listed here: C[C@@]1(F)[C@H](O)[C@@H](CO)O[C@H]1n1ccc(N)nc1=O
8.41 µM
